This collection of values is drawn from patent US20180250395A1.

Assayed System: T1, recombinant human CD47 extracellular domain (ECD), His-tagged, monomer (human, UniProt Q08722 19-141)
T1 construct: C-terminal 6xHis tag; monomeric fraction from Superdex 200; also called human CD47 ECD; CD47-ECD monomer
Assay Info: ProteOn SPR; mAb captured, ECD monomer as analyte

{"columns": ["Binder", "Kd [nM]"],
 "data": [
  ["C47B225 (antibody, V domains shown, human IgG2sigma/kappa) VH: EVQLVQSGAEVKKPGESLKISCKGSGYSFDDYWIGWVRQMPGKGLEWMGIIYPGDSDTRYSPSFQGQVTISADKSISTAYLQWSSLKASDTAVYYCARVGRFASHQLDYWGQGTLVTVSS VL: EIVLTQSPATLSLSPGERATLSCRASQSVNKALAWYQQKPGQAPRLLIYGASNRATGIPARFSGSGSGTDFTLTISSLEPEDFAVYYCQQGKGWPFTFGQGTKVEIK", 3.31],
  ["C47B226 (antibody, V domains shown, human IgG2sigma/kappa; also called C27B226) VH: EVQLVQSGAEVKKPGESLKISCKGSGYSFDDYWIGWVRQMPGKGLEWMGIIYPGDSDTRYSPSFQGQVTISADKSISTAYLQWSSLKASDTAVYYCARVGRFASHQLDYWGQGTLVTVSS VL: EIVLTQSPATLSLSPGERATLSCRASQSVNNRLAWYQQKPGQAPRLLIHWASTRAIGIPARFSGSGSGTDFTLTISSLEPEDFAVYYCQQGASWPFTFGQGTKVEIK", 0.872],
  ["C47B232 (antibody, V domains shown, human IgG2sigma/kappa) VH: EVQLVQSGAEVKKPGESLKISCKGSGYSFTNYWIGWVRQMPGKGLEWMGIIYPGDSDTRYSPSFQGQVTISADKSISTAYLQWSSLKASDTAVYYCARVGRFASHQLDYWGQGTLVTVSS VL: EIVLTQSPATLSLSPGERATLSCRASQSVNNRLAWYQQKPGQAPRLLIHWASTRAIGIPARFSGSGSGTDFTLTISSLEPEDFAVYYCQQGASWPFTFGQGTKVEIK", 2.8]
]}
